Just for reference, patent US20160200799A1 is where these values come from.

# system_name: Influenza virus A/Suita/1/2009pdm (H1N1 2009 pandemic) (Influenza A virus A/Suita/1/2009pdm (H1N1pdm))
# experiment_summary: cell-based or functional assay
Consider the following binders; for each one, report its Neutralizing activity (%) at 250 µg/ml.
Give bare numbers, in %.

Illustrative cases are given below, each with its answer.
binder="Group 2 representative clone F082-220, Fab-PP-type antibody (Fab, V domains shown) VH: QVQLVQSGAEVKKPGSSVKVSCKASGGIFRSNAVSWVRQAPGQGLEWMGGIIAIFGTPKYAQKFQGRVTITADESTSTVYMELSGLRYEDTAVYYCARGPNYYESYFDYWGQGTLVTVSS VL: DIVMTQSPPSLSASVGDRVTITCRASQGISNYLAWYQQKPGKAPKLLIFGASTLHSGVSSRFSGSGSGPDFTLTISSLQPEDAATYYCQKYHSAPLTFGGGTKVEMK" parameter="Neutralizing activity (%) at 250 µg/ml" result_number=97.7
binder="Group 55 representative clone F083-305, Fab-PP-type antibody (Fab, V domains shown) VH: EVQLVESGAEVKKPGSSVKVSCKASGSIFSNYAISWVRQAPGQGLEWMGGIVPMFGTTRFAQKFQGRVTITADESRSTAYMELNNLISEDTAVYYCARAPLIYNWYFDLWGRGTLVTVSS VL: EIVLTQSPSFVSASVGDRVSITCRASQGISSWLAWYQQKPGKAPRLLIYGASNLQSGVPSRFSGSGSGTDYTLTINSLQPEDFATYYCQQARTFPVTFGQGTKLEIK" parameter="Neutralizing activity (%) at 250 µg/ml" result_number=69.5
binder="Group 42 representative clone F083-249, Fab-PP-type antibody (Fab, V domains shown) VH: QVQLVQSGSEVKKPGSSVKVSCKASGVTFSSYAISWVRQAPGQGLEWMGGISPMFGTTRYAQKFQGRVTITADESTRTGFMELSSLRSGDTAVYYCARSPTYYPGALDMWGQGTTVTVSS VL: DVVMTQSPSLLSASVGDRVTITCRASQAIANFVSWFQQKPGEAPKSLIHAASTLQGGVPPRFSGSGYGAVFTLTITNLQPEDFATYFCQQYNSLPFTFGPGTDVEVR" parameter="Neutralizing activity (%) at 250 µg/ml" result_number=97.7
binder="Group 44 representative clone F081-008, Fab-PP-type antibody (Fab, V domains shown) VH: QVQLVQSGAEVKKPGSSVKVSCKASGGTFSSFSTYTISWVRQAPGQGLEWMGRSIPLLGITNYAQKFQGRVTITADISTSTAYMELSSLRSEDTAVYYCARYQSSDYYNSEYFQHWGQGTLVTVSS VL: EIVLTQSPGTLSLSLGERVTLSCRASQNVGTNYLAWYQQKPGQAPRLLIYGASSRATGVPDRFSGSGSGTDFTLTISRLAPEDFAVYYCQQYSSSPLTFGGGTKLEIK" parameter="Neutralizing activity (%) at 250 µg/ml" result_number=97.7
binder="Group 58 representative clone F083-307, Fab-PP-type antibody (Fab, V domains shown) VH: QVQLQQSGADVKKPGSSVKVSCKASGGTFGNYAISWVRQAPGQGLEWMGGITPIFGPANYAQRFQGRVTISADISTRTAYMELSSLRSEDTAIYYCARHPTYYFGSAMEYWGQGTLVTVSS VL: SYELTQPPSVSVAPGQTATITCGGDRIGTGPVHWYQQRPGRAPVLIIYGSTHRPSGIPERFSGSKSVNTATLSISGVGVGDEADYYCQVWDTSTAQPIVFGGGTKLTVLS" parameter="Neutralizing activity (%) at 250 µg/ml" result_number=54.8
binder="Group 62 representative clone F083-349, Fab-PP-type antibody (Fab, V domains shown) VH: QVQLVQSGAEVRKPGSSVKVSCKASGVIFIKFAISWVRQAPGQGLEWMGGIIPMFGTTNYAQKFQGRVTITADGSTNTVYMELSSLTSEDTAVYYCAKEEGYYYGSGPLDSWGQGTLVTVSS VL: DIVMTQSPDFLSVSLGERVTINCKSSQTVLNRSNNKNYLAWYQKKPGQPPRLLLYWSSTRESGVPDRFSGSGSETDFALTITNLQAEDLAVYFCQQFYDMPVTFGGGTKLEIK" parameter="Neutralizing activity (%) at 250 µg/ml" result_number=91.3
binder="Group 43 representative clone F081-007, Fab-PP-type antibody (Fab, V domains shown) VH: QVQLQQSGAEVKKPGSSVKVSCKASGGIFRKNAISWVRQAPGQGLEWMGGISAIFGTANYAQKFQGRVTITADESSNTVYMDLSRLRSEDTAIYYCASHPTYHFDKSGYRFDSWGQGTLVTVSS VL: QSVLTQPPSVSAAPGQKVTISCSGSSSNIGNNYVSWYQQLPGTAPKLLIYDNNKRPSGIPDRFSGSKSGTSATLGITGLQTGDEADYYCGTWDSSLSAGVFGGGTKLTVLG" parameter="Neutralizing activity (%) at 250 µg/ml" result_number=100
binder="Group 39 representative clone F082-237, Fab-PP-type antibody (Fab, V domains shown) VH: QVQLVQSGAEVKKPGSSVKVSCKASGGIFNKYGISWVRQAPGQGLEWMGGILAIFGTTNYAQKFQGRVTISADESSTTVYMELSSLTSEDTAVYYCARGNTYYSSYFDQWGQGTLVTVSS VL: QSVLTQPPSVSVAPGQTATITCGGDKIGTGPVHWYQQMPGRAPVLLIYASTHRPSRIPERFSGSKSDNTATLSISGVGVGDEADYYCQMWDSSSVHPIVFGGGTKLTVLS" parameter="Neutralizing activity (%) at 250 µg/ml" result_number=100

Would you mind giving Neutralizing activity (%) at 250 µg/ml for every binder in the list below?
1. Group 1 representative clone F080-227, Fab-PP-type antibody (Fab, V domains shown) VH: QVQLQESGAEVKKPGSSVKVSCKASGGIFRRNAISWVRQAPGQGLEWMGGIIAIFGTANYAQKFQGRVTITADESTSTVYMELSSLRPEDTAVYYCARGPNYYENFFDYWGQGTLVTVSS VL: DIVMTQSPSSLSASVGDRLDLTCRASQDIANSLAWYKQRPGKAPELLVFGASRLEGGVPSRFSGTRAGTDFTLTISSLQPEDLGTYFCQQYFSFPRTFGQGTTLDLR
2. Group 3 representative clone F081-281, Fab-PP-type antibody (Fab, V domains shown) VH: QVQLVQSGSEVKKPGSSVKVSCSFKASGGIISKYAITWVRQAPGQGLEWMGGIIAIFGSTNYAQKFQGRLTITSDESTSTAYMELSSLTSEDTAVYYCGRGPHYYESHLDYWGQGTLVTVSS VL: EIVLTQSPGTLSLSPGERATLSCRASQGMSSSFLAWYQQKPGQPPRLLISGASTRATGIPDRFSGSGSGTDFTLTINRLEPEDFAVYYCQQYGSSPRTFGQGTKVEIK

Reply:
100
100
